Cited source for all entries: patent US10988465B2

assay_procedure: Mouse brain uptake assay (MBUA), 3 mg/kg IV, 0-1 h, 3 time points
Assay type: in vivo, male CD1 mice
condition_notes: mouse; fraction unbound to plasma proteins; read-out: Fu (p) %
Output Yes for fraction unbound not less than 0.08; output No otherwise.

In [3]: df
Out[3]:
                                   compound  label_value
0  CN1CCN(c2cccc3nc([C@H]4CCC[C@@H](c5ncccc5Cl)N4C)[nH]c23)CC1           No
1  CN1CCN(c2cccc3nc([C@H]4CCC[C@@H](c5ncccc5Cl)N4)[nH]c23)CC1 (racemic)          Yes
2  Cc1cccnc1[C@@H]1CCC[C@H](c2nc3ccccc3n2CC2CCN(C)CC2)N1C           No
3  COc1cccnc1[C@@H]1CCC[C@H](c2nc3cccc(N4CCN(C)CC4)c3[nH]2)N1          Yes
4  Cc1cccnc1[C@@H]1CCC[C@H](c2nc3cccc(N4CCN(C)CC4)c3[nH]2)N1          Yes
5  Cc1cccnc1[C@@H]1CCC[C@H](c2nc3cccc(N4CCN(C)C5(CC5)C4)c3[nH]2)N1           No
6  Cc1cccnc1[C@@H]1CCC[C@H](c2nc3ccccc3n2CC2CCN(C(C)C)CC2)N1C          Yes
